tested on: Klebsiella pneumoniae; test: Antimicrobial activity against multidrug resistant Klebsiella pneumoniae isolate 1 by broth dilution method; assay type: functional
MIC overview
recorded endpoint: MIC (µg/mL)

structure_as_smiles=CN(C)[C@@H]1C(O)=C(C(N)=O)C(=O)[C@@]2(O)C(O)=C3C(=O)c4c(O)cccc4[C@@](C)(O)[C@H]3C[C@@H]12 assay_target="Klebsiella pneumoniae" recorded_measurement=8
structure_as_smiles=CC(C)(O/N=C(\C(=O)N[C@@H]1C(=O)N2C(C(=O)[O-])=C(C[n+]3ccccc3)CS[C@H]12)c1csc(N)n1)C(=O)O assay_target="Klebsiella pneumoniae" recorded_measurement=2050
structure_as_smiles=CO[C@@]1(NC(=O)Cc2cccs2)C(=O)N2C(C(=O)O)=C(COC(N)=O)CS[C@@H]21 assay_target="Klebsiella pneumoniae" recorded_measurement=16
structure_as_smiles=C[C@@H]1CN(c2c(F)c(N)c3c(=O)c(C(=O)O)cn(C4CC4)c3c2F)C[C@H](C)N1 assay_target="Klebsiella pneumoniae" recorded_measurement=0.25
